All figures here come from ChEMBL document CHEMBL5352388.

test: Intrinsic clearance in human liver measured upto 60 mins in presence of NADPH by LC/MS/MS analysis; type: ADME, tissue-based; conditions: read-out: CLH
Observed Property: CLint scaled (L/h/kg)
State just the number; it will be interpreted in L/h/kg.

Cc1ccc(-c2cc3c(cc2-c2ccc(C#N)cc2)c(C(=O)N2CCC(N)CC2)cn3S(=O)(=O)c2ccc(F)cc2)cc1    0.516

Switching to the query record.
CLint scaled measured on Cc1ccc(-c2cc3occ(CN4CCC[C@H](N)C4)c3cc2-c2ccc(C#N)cc2)cc1 = 1.33

----------
molecular target: CYP2C19 (Homo sapiens); assay: Inhibition of CYP2C19 (unknown origin) at 10 uM incubated for 20 mins in presence of NADPH by LC/MS/MS analysis relative to control; assay type: ADME
Sequence (P33261 whole entry): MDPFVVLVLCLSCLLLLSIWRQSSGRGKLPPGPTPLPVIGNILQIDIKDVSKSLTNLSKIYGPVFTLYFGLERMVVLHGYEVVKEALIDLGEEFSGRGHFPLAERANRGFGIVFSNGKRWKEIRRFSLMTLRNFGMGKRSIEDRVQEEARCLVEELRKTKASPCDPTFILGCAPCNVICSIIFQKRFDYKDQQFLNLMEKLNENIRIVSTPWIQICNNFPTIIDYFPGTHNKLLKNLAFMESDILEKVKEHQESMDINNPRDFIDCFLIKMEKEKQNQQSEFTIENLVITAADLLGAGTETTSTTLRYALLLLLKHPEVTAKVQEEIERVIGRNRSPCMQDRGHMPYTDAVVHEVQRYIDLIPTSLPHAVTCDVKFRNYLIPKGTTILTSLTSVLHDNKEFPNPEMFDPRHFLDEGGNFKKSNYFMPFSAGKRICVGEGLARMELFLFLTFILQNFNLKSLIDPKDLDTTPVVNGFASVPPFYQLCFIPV
Catalogue of molecules with associated inhibition at 20 min, 10 µM
State just the number; it will be interpreted in %.

Cc1ccc(-c2cc3occ(CN4CCC[C@H](N)C4)c3cc2-c2ccc(C#N)cc2)cc1    10.5

inhibition at 20 min, 10 µM measured on Cc1ccc(-c2cc3c(cc2-c2ccc(C#N)cc2)c(C(=O)N2CCC(N)CC2)cn3S(=O)(=O)c2ccc(F)cc2)cc1 = 17.5

----------
tested on: MCF7; experiment: cells; settings: Homo sapiens, MCF7, 72 h
Description: Antiproliferative activity against human MCF7 cells assessed as inhibition of cell growth incubated for 72 hrs by CCK-8 assay
Catalogue of molecules with associated pIC50
Give only the number. pIC50 is defined as minus log10 of concentration in molar units.

Worked examples follow.
Cc1ccc(-c2cc3occ(CN4CCC[C@H](N)C4)c3cc2-c2ccc(C#N)cc2)cc1    4.98
Cc1ccc(-c2cc3c(cc2-c2ccc(C#N)cc2)c(C(=O)N2CCC(N)CC2)cn3Cc2cccc(C#N)c2)cc1    5.17
Cc1ccc(-c2cc3[nH]cc(C(=O)N4CCC(N)CC4)c3cc2-c2ccc(C#N)cc2)cc1F    4.99
Cc1ccc(-c2cc3[nH]cc(C(=O)N4CCC(N)CC4)c3cc2-c2ccc(C#N)cc2)cc1C    4.83
Cc1ccc(-c2cc3[nH]cc(C(=O)N4CCC[C@H](N)C4)c3cc2-c2ccc(C#N)cc2)cc1    5.21
Cc1ccc(-c2cc3[nH]cc(C(=O)N4CCNCC4)c3cc2-c2ccc(C#N)cc2)cc1    4.91
CCc1ccc(-c2cc3[nH]cc(C(=O)N4CCC(N)CC4)c3cc2-c2ccc(C#N)cc2)cc1    4.83
Cc1ccc(-c2cc3[nH]cc(C(=O)N4CCC(N)CC4)c3cc2-c2ccc(C#N)c(F)c2)cc1    4.83

Switching to the query record.
Value (pIC50, MCF7) for record Cc1ccc(-c2cc3[nH]cc(C(=O)NCC4CCNCC4)c3cc2-c2ccc(C#N)cc2)cc1 = 5.07

----------
assay: Half life in Sprague-Dawley rat at 3 mg/kg,iv by LC-MS/MS analysis; type: ADME, organism-based; details: in vivo
Observed Property: half-life (min)
State just the number; it will be interpreted in min.

half-life measured on Cc1ccc(-c2cc3c(cc2-c2ccc(C#N)cc2)c(C(=O)N2CCC(N)CC2)cn3S(=O)(=O)c2ccc(F)cc2)cc1 = 527

----------
system: HeLa; assay: Antiproliferative activity against human HeLa cells assessed as inhibition of cell growth incubated for 72 hrs by CCK-8 assay; format: functional, cell-based
Observed Property: pIC50
Give only the number. pIC50 is defined as minus log10 of concentration in molar units.

Worked examples follow.
Cc1ccc(-c2cc3[nH]cc(C(=O)N4CCNCC4)c3cc2-c2ccc(C#N)cc2)cc1    4.82
CCc1ccc(-c2cc3[nH]cc(C(=O)N4CCC(N)CC4)c3cc2-c2ccc(C#N)cc2)cc1    4.83

pIC50 measured on Cc1ccc(-c2cc3[nH]cc(C(=O)N4CCC[C@H](N)C4)c3cc2-c2ccc(C#N)cc2)cc1 = 4.94

pIC50 measured on Cc1ccc(-c2cc3[nH]cc(C(=O)N4CCC(N)CC4)c3cc2-c2ccc(C#N)cc2)c(F)c1 = 4.57

pIC50 measured on Cc1cc(C)cc(-c2cc3[nH]cc(C(=O)N4CCC(N)CC4)c3cc2-c2ccc(C#N)cc2)c1 = 5.00

pIC50 measured on Cc1ccc(-c2cc3[nH]cc(C(=O)N4CCC(N)CC4)c3cc2-c2ccc(C#N)cc2)cc1C = 4.86

pIC50 measured on Cc1ccc(-c2cc3[nH]cc(C(=O)N4CCC(N)CC4)c3cc2-c2ccc(C#N)cc2)cc1F = 4.78

pIC50 measured on Cc1ccc(-c2cc3c(cc2-c2ccc(C#N)cc2)c(C(=O)N2CCC(N)CC2)cn3Cc2cccc(C#N)c2)cc1 = 5.18

pIC50 measured on Cc1ccc(-c2cc3[nH]cc(C(=O)NCC4CCNCC4)c3cc2-c2ccc(C#N)cc2)cc1 = 4.90

pIC50 measured on Cc1ccc(-c2cc3[nH]cc(C(=O)N4CCC(N)CC4)c3cc2-c2ccc(C#N)cc2)cc1 = 4.85
